Item-by-item account of IC50
target: CYP2D6 (Homo sapiens, UniProt P10635); construct: 0.1 mg/mL protein human liver microsomes (BD Gentest); tissue BD Gentest; host or cells: human liver microsomes; assay: Cocktail assay for CYPs in human liver microsomes: CYP2D6 (dextromethorphan O-demethylation); assay type: biochemical; details: human liver microsomes 0.1 mg/mL, 5 μM dextromethorphan, 10 min at 37° C., 6 concentrations up to 10 μM; read-out: IC50 (nM) CYP2D6
Sequence (P10635 whole entry): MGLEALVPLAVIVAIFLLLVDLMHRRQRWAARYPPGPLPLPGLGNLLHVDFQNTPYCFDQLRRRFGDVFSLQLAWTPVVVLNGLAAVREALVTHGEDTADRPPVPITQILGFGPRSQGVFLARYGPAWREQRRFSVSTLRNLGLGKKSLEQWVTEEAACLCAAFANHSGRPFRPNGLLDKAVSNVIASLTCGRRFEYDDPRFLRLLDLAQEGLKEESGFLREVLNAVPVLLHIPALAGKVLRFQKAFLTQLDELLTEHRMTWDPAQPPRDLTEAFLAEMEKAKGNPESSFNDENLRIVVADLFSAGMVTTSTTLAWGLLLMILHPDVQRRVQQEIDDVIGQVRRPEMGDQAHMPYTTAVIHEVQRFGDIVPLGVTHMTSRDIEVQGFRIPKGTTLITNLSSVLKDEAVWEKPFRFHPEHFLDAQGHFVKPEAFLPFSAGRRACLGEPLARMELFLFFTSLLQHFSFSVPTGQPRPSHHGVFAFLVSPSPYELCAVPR
# unit: nM | format: bare number

| MOLECULE | IC50 / nM |
| --- | --- |
| CC(c1ccccc1-c1ccc(F)cc1)n1cncc1CN1CCC(O)C1 (stereo not shown) [Compound 17] | 4040 |

**Q:** Given the entry CCOC(=O)CN1CCN(Cc2cncn2C(C)c2ccccc2-c2ccc(F)cc2)CC1 (stereo not shown) [Compound 70] , report its measured IC50.
**A:** 7680

**Q:** Entry to check: COc1ccc2nc(N3CCN(Cc4cncn4[C@H](C)c4ccc(C#N)cc4)CC3)sc2c1 [Compound 38]
**A:** 3690

**Q:** Entry to check: C[C@H](c1ccc(C#N)cc1)n1cncc1CN1CCN(c2nc3ccc(F)c(F)c3o2)CC1 [Compound 31]
**A:** 2870
